Tested on: HIV-1 LAI
Assay: microbe, parasite or virus in culture
Conditions: Compound 1 + named drug, EC50 ratio 2.5:1 (Compound 1:comparator); 95% confidence interval in parentheses
experimental-endpoint: Combination Indices at % HIV Inhibition (Confidence Interval) 50%

record-smiles: Cc1cn([C@H]2C[C@H](N=[N+]=[N-])[C@@H](CO)O2)c(=O)[nH]c1=O
experimental-value: 0.37 (0.28, 0.47)
--
record-smiles: Cc1cccc(C)c1OCC(=O)N[C@@H](Cc1ccccc1)[C@@H](O)C[C@H](Cc1ccccc1)NC(=O)[C@H](C(C)C)N1CCCNC1=O
experimental-value: 0.29 (0.25, 0.33)

Quote HIV-1 LAI Combination Indices at % HIV Inhibition (Confidence Interval) 50% for entry c1cc(CN2CCCNCCNCCCNCC2)ccc1CN1CCCNCCNCCCNCC1 .
0.52 (0.36, 0.68)

Quote HIV-1 LAI Combination Indices at % HIV Inhibition (Confidence Interval) 50% for entry Cc1c(O)cccc1C(=O)N[C@@H](CSc1ccccc1)[C@H](O)CN1C[C@H]2CCCC[C@H]2C[C@H]1C(=O)NC(C)(C)C .
0.12 (0.09, 0.15)

Ref: patent US7776863B2
